Species: Rattus norvegicus
Experiment description: Open TG-GATES - Regimen: Single
Assay type: toxicity, organism-based, Sprague-Dawley
Parameters: regimen Single, gender Male, age 6 weeks
Protocol conditions: in vivo, po, 0 mg/kg, 9 h, tissue Plasma, route gavage, dose level Control
Endpoint name: Ca (mg/dL)
API: value field is a number in mg/dL; no unit string.

Below, each entry is followed by its recorded Ca result.
- Compound: "NNC(=O)c1ccncc1"
  Unit string: "mg/dL"
  Ca: 10.5
- Compound: "C[C@@H]1C[C@H]2[C@@H]3CCC4=CC(=O)C=C[C@]4(C)[C@@]3(F)[C@@H](O)C[C@]2(C)[C@@]1(O)C(=O)CO"
  Unit string: "mg/dL"
  Ca: 10.5
- Compound: "CCCNC(=O)NS(=O)(=O)c1ccc(Cl)cc1 [CHLORPROPAMIDE]"
  Unit string: "mg/dL"
  Ca: 10.6

Continue with the next compound.
Give Ca for `Cc1ccc(C)c(OCCCC(C)(C)C(=O)O)c1`
11.1

---

Species: Rattus norvegicus
Experiment description: Open TG-GATES - Regimen: Single
Type: toxicity, organism-based, Sprague-Dawley
Design: regimen Single, gender Male, age 6 weeks
Protocol conditions: in vivo, po, 0 mg/kg, 6 h, tissue Blood, route gavage, dose level Control
Entry flag: Criterion met if Mono reaches 3%; Criterion not met if it does not.

- Molecule: "O=C(CCCN1CCC(O)(c2ccc(Cl)cc2)CC1)c1ccc(F)cc1 [HALOPERIDOL]"
  Class label: "Criterion met"

Has CC/C(=C(\c1ccccc1)c1ccc(OCCN(C)C)cc1)c1ccccc1 [TAMOXIFEN] a recorded Mono greater than or equal to 3%?
Criterion met

Assess whether reported Mono for `CN(C)CCN(Cc1cccs1)c1ccccn1` sits at 3% or higher.
Criterion not met

Threshold query (Mono >= 3%) on CCOC(=O)CCC(=O)O[C@H]1[C@H](O[C@@H]2[C@@H](C)[C@H](O[C@H]3C[C@@](C)(OC)[C@@H](O)[C@H](C)O3)[C@@H](C)C(=O)O[C@H](CC)[C@@](C)(O)[C@H](O)[C@@H](C)C(=O)[C@H](C)C[C@@]2(C)O)O[C@H](C)C[C@@H]1N(C)C [ERYTHROMYCIN ETHYLSUCCINATE]
Criterion not met

---

Listed compounds paired with reported TERMINAL_BW
Species: Rattus norvegicus
Experiment description: Open TG-GATES - Regimen: Daily Repeat
Format: toxicity, organism-based, Sprague-Dawley
Design: regimen Daily Repeat, gender Male, age 6 weeks
Protocol conditions: in vivo, po, 100 mg/kg, 72 h, route gavage, dose level Low, time 3 day
Numeric answer only, unit g assumed.

Example results:
- Compound: "CCOc1ccc(NC(=O)CC(C)O)cc1 (stereo not given)"
  TERMINAL_BW (g): 249.8
- Compound: "CCOC(=O)CCC(=O)O[C@H]1[C@H](O[C@@H]2[C@@H](C)[C@H](O[C@H]3C[C@@](C)(OC)[C@@H](O)[C@H](C)O3)[C@@H](C)C(=O)O[C@H](CC)[C@@](C)(O)[C@H](O)[C@@H](C)C(=O)[C@H](C)C[C@@]2(C)O)O[C@H](C)C[C@@H]1N(C)C [ERYTHROMYCIN ETHYLSUCCINATE]"
  TERMINAL_BW (g): 235.5
- Compound: "NC(N)=Nc1nc(CSCCC(N)=NS(N)(=O)=O)cs1"
  TERMINAL_BW (g): 224.5
- Compound: "COc1ccc2[nH]c([S+]([O-])Cc3ncc(C)c(OC)c3C)nc2c1 (stereo not given)"
  TERMINAL_BW (g): 240.6

Please examine the following record next.
Input `COC1=CC(=O)C[C@@H](C)[C@]12Oc1c(Cl)c(OC)cc(OC)c1C2=O` , output reported TERMINAL_BW.
226.6

---

Species: Rattus norvegicus
Experiment description: Open TG-GATES - Regimen: Daily Repeat
Assay type: toxicity, organism-based, Sprague-Dawley
Design: regimen Daily Repeat, gender Male, age 6 weeks
Protocol conditions: in vivo, po, 100 mg/kg, […], tissue Plasma, route gavage, dose level Low, time 28 day
Recorded CRE for the following compounds
# number only, unit mg/dL dropped from output

Give the reported CRE for this compound. NC(N)=Nc1nc(CSCCC(N)=NS(N)(=O)=O)cs1 [FAMOTIDINE]
0.6

Give me measured CRE, please, for this compound: COC1=CC(=O)C[C@@H](C)[C@]12Oc1c(Cl)c(OC)cc(OC)c1C2=O [GRISEOFULVIN]
0.5

// Input: CCOC(=O)CCC(=O)O[C@H]1[C@H](O[C@@H]2[C@@H](C)[C@H](O[C@H]3C[C@@](C)(OC)[C@@H](O)[C@H](C)O3)[C@@H](C)C(=O)O[C@H](CC)[C@@](C)(O)[C@H](O)[C@@H](C)C(=O)[C@H](C)C[C@@]2(C)O)O[C@H](C)C[C@@H]1N(C)C [ERYTHROMYCIN ETHYLSUCCINATE] . Output its CRE only.
0.2

Please give the documented CRE of CCOc1ccc(NC(=O)CC(C)O)cc1 (stereo not given) [BUCETIN]
0.3

Supply CRE value. Item: COc1ccc2[nH]c([S+]([O-])Cc3ncc(C)c(OC)c3C)nc2c1 (stereo not given) [OMEPRAZOLE]
0.5

---

Listed next: entries and their corresponding WBC.
Species on record: Rattus norvegicus
Experiment description: Open TG-GATES - Regimen: Single
Format: toxicity, organism-based, Sprague-Dawley
Design: regimen Single, gender Male, age 6 weeks
Protocol conditions: in vivo, po, 0 mg/kg, 6 h, tissue Blood, route gavage, dose level Control

- Molecule: "CC/C(=C(\\c1ccccc1)c1ccc(OCCN(C)C)cc1)c1ccccc1"
  WBC: "64.1 x10_2/uL"
- Molecule: "CCOC(=O)CCC(=O)O[C@H]1[C@H](O[C@@H]2[C@@H](C)[C@H](O[C@H]3C[C@@](C)(OC)[C@@H](O)[C@H](C)O3)[C@@H](C)C(=O)O[C@H](CC)[C@@](C)(O)[C@H](O)[C@@H](C)C(=O)[C@H](C)C[C@@]2(C)O)O[C@H](C)C[C@@H]1N(C)C [ERYTHROMYCIN ETHYLSUCCINATE]"
  WBC: "111.5 x10_2/uL"
- Molecule: "CN(C)CCCN1c2ccccc2CCc2ccccc21"
  WBC: "95 x10_2/uL"

Look up WBC of CCCNC(=O)NS(=O)(=O)c1ccc(Cl)cc1 [CHLORPROPAMIDE] and report it.
85.6 x10_2/uL

Give a short answer stating reported WBC for `COC1=CC(=O)C[C@@H](C)[C@]12Oc1c(Cl)c(OC)cc(OC)c1C2=O` .
107.8 x10_2/uL

Give a short answer stating reported WBC for `CN(C)CCN(Cc1cccs1)c1ccccn1` .
97.9 x10_2/uL

Identify measured WBC associated with `C[C@@H]1C[C@H]2[C@@H]3CCC4=CC(=O)C=C[C@]4(C)[C@@]3(F)[C@@H](O)C[C@]2(C)[C@@]1(O)C(=O)CO`
103.8 x10_2/uL

---

Species on record: Rattus norvegicus
Experiment description: Open TG-GATES - Regimen: Single
Type: toxicity, organism-based, Sprague-Dawley
Design: regimen Single, gender Male, age 6 weeks
Protocol conditions: in vivo, po, 10 mg/kg, 9 h, tissue Plasma, route gavage, dose level Low
Endpoint name: TP (g/dL)
Supply the numeric figure in g/dL, leaving out any unit text.

Reference set (3 entries):
- Compound: "CN(C)CCCN1c2ccccc2CCc2ccccc21 [IMIPRAMINE]"
  TP (g/dL): 5.5
- Compound: "CC(C)OC(=O)C(C)(C)Oc1ccc(C(=O)c2ccc(Cl)cc2)cc1 [FENOFIBRATE]"
  TP (g/dL): 5.2
- Compound: "CN(C)CCN(Cc1cccs1)c1ccccn1"
  TP (g/dL): 5.4

For the compound CC1=C(/C=C/C(C)=C/C=C/C(C)=C/CO)C(C)(C)CCC1 [RETINOL] , give its measured TP value.
5.3

Answer with reported TP of CN(C)CCCN1c2ccccc2CCc2ccc(Cl)cc21 [CLOMIPRAMINE]
5.3

---

Species: Rattus norvegicus
Experiment description: Open TG-GATES - Regimen: Single
Type: toxicity, organism-based, Sprague-Dawley
Design: regimen Single, gender Male, age 6 weeks
Protocol conditions: in vivo, po, 300 mg/kg, 3 h, tissue Plasma, route gavage, dose level Middle
Endpoint name: TBIL (mg/dL)
Answer in mg/dL, number only, no unit symbol.

Examples from the recorded data:
- Compound: "COc1ccc2[nH]c([S+]([O-])Cc3ncc(C)c(OC)c3C)nc2c1 (centres undefined) [OMEPRAZOLE]"
  TBIL (mg/dL): 0.1
- Compound: "NC(N)=Nc1nc(CSCCC(N)=NS(N)(=O)=O)cs1 [FAMOTIDINE]"
  TBIL (mg/dL): 0.1
- Compound: "CCOC(=O)CCC(=O)O[C@H]1[C@H](O[C@@H]2[C@@H](C)[C@H](O[C@H]3C[C@@](C)(OC)[C@@H](O)[C@H](C)O3)[C@@H](C)C(=O)O[C@H](CC)[C@@](C)(O)[C@H](O)[C@@H](C)C(=O)[C@H](C)C[C@@]2(C)O)O[C@H](C)C[C@@H]1N(C)C [ERYTHROMYCIN ETHYLSUCCINATE]"
  TBIL (mg/dL): 0.026

--- query ---
Could you please provide reported TBIL for COC1=CC(=O)C[C@@H](C)[C@]12Oc1c(Cl)c(OC)cc(OC)c1C2=O [GRISEOFULVIN] ? Thanks!
0.2

Recorded values, source ChEMBL document CHEMBL3885861.
